# Experimental details: Phage ELISA for skin binding affinity after body wash treatment (Example 15)
# Design: species or system pig
# Run parameters: buffer wash, procedure of Example 14; mean of at least three replicates
Reported metric: Buffer Wash A450 ± SEM
# answer = number (no unit)

Consider the worked cases shown below.
Substance	Buffer Wash A450 ± SEM
QLSYHAYPQANHHAP (Body wash-resistant skin-binding peptide) [Skin-15mer-1]	1.031
SPYPSWSTPAGR (Body wash-resistant skin-binding peptide) [Skin-12mer-9]	1.298
D21: hair-binding phage peptide used as control in Example 15, known low binding affinity for skin (RTNAADHPAAVT; Hair-binding sequence) [Clone D21, reference compound]	0.297
SGCHLVYDNGFCDH (Body wash-resistant skin-binding peptide) [Skin-cys-1]	1.182

Shifting focus to the substance that follows.
Kindly indicate its recorded Buffer Wash A450 ± SEM. Item: IB5: hair-binding phage peptide (Huang et al.) used as control, known low binding affinity for skin (TPPELLHGDPRS; Hair-binding peptide)
0.202
